Provenance of the data: the supplement of paper PMC11061612

Recorded Bliss excess by entry
Tested on: K-562 (Chronic Myelogenous Leukemia)
Experiment: Bliss excess, mean over the matrix (fraction); higher = more synergy;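 further: after 72 h of two-drug dosing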

>  <compound>
N#Cc1cnc(Nc2cc(NC[C@H]3CNCCO3)c(C(F)(F)F)cn2)cn1 [SRA737] + O=c1[nH]cc(F)c(=O)[nH]1 [5-Fluorouracil] (first compound max 10 µM, 7x7, partner max 20 µM)

>  <study-target>
K-562 (Chronic Myelogenous Leukemia)

>  <Bliss excess>
-0.0202

$$$$
>  <compound>
Cc1cc2ncnn2cc1Nc1ncc2c(n1)n(C1CCOCC1)c(=O)n2C [AZD7648] + C=CCn1c(=O)c2cnc(Nc3ccc(N4CCN(C)CC4)cc3)nc2n1-c1cccc(C(C)(C)O)n1 [AZD1775] (first compound max 10 µM, partner max 1 µM)

>  <study-target>
K-562 (Chronic Myelogenous Leukemia)

>  <Bliss excess>
0.0017

$$$$
>  <compound>
O=C(c1cc(Cc2n[nH]c(=O)c3ccccc23)ccc1F)N1CCN(C(=O)C2CC2)CC1 [Olaparib] + COc1nnc2ccc(N3CCC(c4ccc(OCCN5CCN(C)C(=O)[C@H]5C)cc4)CC3)nn12 [AZD5153] (first compound max 10 µM, 7x7, partner max 1 µM)

>  <study-target>
K-562 (Chronic Myelogenous Leukemia)

>  <Bliss excess>
-0.0063

$$$$
>  <compound>
CCN(CCO)CCCOc1ccc2c(Nc3cc(CC(=O)Nc4cccc(F)c4)[nH]n3)ncnc2c1 [AZD2811] + O=C(c1cc(Cc2n[nH]c(=O)c3ccccc23)ccc1F)N1CCN(C(=O)C2CC2)CC1 [Olaparib] (first compound max 1 µM, 7x7, partner max 10 µM)

>  <study-target>
K-562 (Chronic Myelogenous Leukemia)

>  <Bliss excess>
0.0216

$$$$
>  <compound>
COc1cccc(OCCCN)c1-c1cc(Nc2cnc(C#N)cn2)n[nH]1 [Prexasertib] + C=CCn1c(=O)c2cnc(Nc3ccc(N4CCN(C)CC4)cc3)nc2n1-c1cccc(C(C)(C)O)n1 [AZD1775] (first compound max 1 µM, partner max 1 µM)

>  <study-target>
K-562 (Chronic Myelogenous Leukemia)

>  <Bliss excess>
0.0497

$$$$

====

Tested on: MKN28 (Gastric Carcinoma)
Test: Bliss excess, mean over the matrix (fraction); higher = more synergy
Bliss excess overview

>  <compound>
NC1(C(=O)N[C@@H](CCO)c2ccc(Cl)cc2)CCN(c2ncnc3[nH]ccc23)CC1 [Capivasertib] + COc1nnc2ccc(N3CCC(c4ccc(OCCN5CCN(C)C(=O)[C@H]5C)cc4)CC3)nn12 [AZD5153] (first compound max 10 µM, 7x7, partner max 1 µM)

>  <Bliss excess>
-0.0075

$$$$
>  <compound>
C[C@@H](c1ccc2nccn2c1)n1nnc2ncc(-c3cnn(C)c3)nc21 [Savolitinib] + CC1(C)CCC(CN2CCN(c3ccc(C(=O)NS(=O)(=O)c4ccc(NCC5CCOCC5)c([N+](=O)[O-])c4)c(Oc4cnc5[nH]ccc5c4)c3)CC2)=C(c2ccc(Cl)cc2)C1 [Venetoclax] (first compound max 1 µM, 7x7, partner max 1 µM)

>  <Bliss excess>
-0.0464

$$$$
>  <compound>
CC1(C)CCC(CN2CCN(c3ccc(C(=O)NS(=O)(=O)c4ccc(NCC5CCOCC5)c([N+](=O)[O-])c4)c(Oc4cnc5[nH]ccc5c4)c3)CC2)=C(c2ccc(Cl)cc2)C1 [Venetoclax] + C=CCn1c(=O)c2cnc(Nc3ccc(N4CCN(C)CC4)cc3)nc2n1-c1cccc(C(C)(C)O)n1 [AZD1775] (first compound max 1 µM, partner max 1 µM)

>  <Bliss excess>
-0.0029

$$$$
